Assay: ATG_ISRE_CIS: Attagene CIS-FACTORIAL HepG2 Assay for human Interferon Regulatory Factor 1 (IRF1) binding to an Interferon-Stimulated Response Element (ISRE) (AID 2282948)
Conditions: HepG2 ISRE cis-reporter (Attagene), mRNA transcription readout; actives raise or lower the signal
Calls of active or inactive are those of the source. How the source made its calls: active means hit-call score of the fitted dose curve at least 0.9, where 1 is the maximum; inactive means score below 0.9.
Classes used: active, inactive

INSERT INTO measurements (compound, category) VALUES
  ('CC(Oc1cc(Cl)ccc1Cl)C(=O)O (configuration not stated)', 'inactive'),
  ('CCCCCCCCCCCCCCCC(=O)OC/C=C(C)/C=C/C=C(C)/C=C/C1=C(C)CCCC1(C)C', 'inactive'),
  ('C[C@H](CCC(=O)NCC(=O)O)[C@H]1CC[C@H]2[C@@H]3[C@H](O)C[C@@H]4C[C@H](O)CC[C@]4(C)[C@H]3C[C@H](O)[C@]12C', 'inactive'),
  ('C#CC(C)(O)CC(C)C (configuration not stated)', 'inactive'),
  ('O=C(O)CNc1ccccc1', 'inactive'),
  ('Cc1cc(S(=O)(=O)O)ccc1N=Nc1c(O)ccc2ccccc12', 'inactive'),
  ('ON=C1CCCCC1', 'inactive'),
  ('CCCCC(CC)COC(=O)c1ccc(O)cc1 (configuration not stated)', 'inactive'),
  ('O=C1OC[C@H](Cc2cccc(O)c2)[C@H]1Cc1cccc(O)c1', 'inactive'),
  ('C=Cc1ccc(C(C)(C)C)cc1', 'inactive'),
  ('CCc1ccc(O)cc1', 'inactive'),
  ('CC(=O)Nc1ccc(C(=O)CCl)cc1', 'active');
